Here the recorded T/C is given for each entry.
# System: nude mice, LX-1 lung xenograft intrarenal, tumor weight T/C
# assay explanation: NCI In Vivo Anticancer Drug Screen. Data for tumor model Human Lung LX-1 Xenograft (intrarenal inoculation) in NU/NU Swiss (nude) mice
# details: endpoint: mean tumor weight change; dose: 24.0 mg/kg/injection; schedule: Q04DX003 (sc); vehicle: Klucel (hydroxypropylcellulose) (HPC); higher = larger tumour
Results filed as inconclusive are left out.

Reference set (3 entries):
> print(dat)
                                   compound  recorded.endpoint            result
1  CC(=O)OCC1OC(OC(C)=O)C(NC(=O)N(CCCl)N=O)C(OC(C)=O)C1OC(C)=O (centres undefined)                T/C   25 % of control
2  CCC[CH2][Sn]1([CH2]CCC)[O]C2C(CO)OC(n3ccc(N)nc3=O)C2[O]1 (centres undefined)                T/C   66 % of control
3  CC1OC1C(=O)C1(O)C(C)C(O)C23OC2(C(O)c2c(O)cccc2C3=O)C1O (centres undefined)                T/C  110 % of control

Need T/C of CC1CC(C)CC(C)C(O)/C(C#N)=C/C=C/CC(C2CCCC2C(=O)O)OC(=O)CC(O)C(C)C1 (centres undefined) , thanks.
48 % of control
